biological target: T1, human IGF2^1-67 (mature insulin-like growth factor 2) (human, UniProt P01344 25-91, biotinylated (site not stated) where immobilised on the chip (Tables 1-4)); test: SPR steady state, biotin-IGF2 on chip, pH 7.4
T1 construct: mature; also called mature IGF2; biotinylated IGF2
T1 sequence (P01344 25-91): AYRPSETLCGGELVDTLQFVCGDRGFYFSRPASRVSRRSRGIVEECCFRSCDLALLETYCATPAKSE
Reported Kd values for the following binders.
MEASURED ENDPOINT: Kd (nM)

1) domain 11^AB5 P1597K (receptor, See m5) MKSNEHDDCQVTNPSTGHLFDLSSLSGRAGFTAAYAKGWGVYMSICGENENCPPGVGACFGQTRISVGKANKRLRYVDQVLQLVYKDGSKCPSKSGLSYKSVISFVCRPEAGPTNRPMLISLDKQTCTLFFSWHTPLACEQATECSV ... 2.21
2) IGF2R domain 11^AB3 (receptor, His6-tagged soluble domain 11; also called domain 11^E1544K, K1545S, L1547V; 1542YSKSGV1547) MKSNEHDDCQVTNPSTGHLFDLSSLSGRAGFTAAYSKSGVVYMSICGENENCPPGVGACFGQTRISVGKANKRLRYVDQVLQLVYKDGSPCPSKSGLSYKSVISFVCRPEAGPTNRPMLISLDKQTCTLFFSWHTPLACEQATECSV ... 15.5
3) domain 11^AB5 Q1569R P1597H K1631W (receptor, See m5) MKSNEHDDCQVTNPSTGHLFDLSSLSGRAGFTAAYAKGWGVYMSICGENENCPPGVGACFGRTRISVGKANKRLRYVDQVLQLVYKDGSHCPSKSGLSYKSVISFVCRPEAGPTNRPMLISLDWQTCTLFFSWHTPLACEQATECSV ... 1.95
4) domain 11^AB5 P1597H S1602H (receptor, See m5) MKSNEHDDCQVTNPSTGHLFDLSSLSGRAGFTAAYAKGWGVYMSICGENENCPPGVGACFGQTRISVGKANKRLRYVDQVLQLVYKDGSHCPSKHGLSYKSVISFVCRPEAGPTNRPMLISLDKQTCTLFFSWHTPLACEQATECSV ... 2.93
5) domain 11^AB5 Q1569R P1597H S1602H (receptor, See m5) MKSNEHDDCQVTNPSTGHLFDLSSLSGRAGFTAAYAKGWGVYMSICGENENCPPGVGACFGRTRISVGKANKRLRYVDQVLQLVYKDGSHCPSKHGLSYKSVISFVCRPEAGPTNRPMLISLDKQTCTLFFSWHTPLACEQATECSV ... 2

Origin of the recorded values: patent US20180237497A1
